# assayed-system: Polyunsaturated fatty acid lipoxygenase ALOX12 (Homo sapiens)
# procedure-text: Primary qHTS assay for inhibitors of human arachidonate 12S-lipoxygenase (ALOX12): Round 2; note: potency is the fitted concentration of half-maximal effect
# condition-label: purified 12hLO, xylenol orange hydroperoxide absorbance; series mostly up to 108 µM
In all, about 580,000 compounds went through this assay and about 6,100 (1.1%) were called active. Another 15% or so got no clear call; they are omitted. The full list was thinned out, with actives kept by preference.
assay-metric: Potency

molecule=FC(F)(F)c1ccccc1-c1cc(NCc2ccccc2)ncn1 value_measured="15.8 µM (active)"
molecule="COc1ccc(CNC(=O)C(C)[C@@H]2CCc3c(C)cc(OCCN4CCOCC4)c(C)c3C2)cc1 (stereo partly drawn)" value_measured=inactive
molecule=N#C/C(=C/NC(=O)c1ccccc1)C(=O)N1CCOCC1 value_measured=inactive
molecule=Cc1ccc(NC(=O)CN(C)C(=O)c2nn(-c3ccccc3)c3c2CCC3)cc1 value_measured=inactive
molecule=CC(C)(C)C(=O)N1CCC(c2nn(-c3ccc(F)cc3)c(=O)[nH]2)CC1 value_measured=inactive
molecule=Cc1cc(C)c(-c2csc(NC(=O)Cn3ncc4ccccc4c3=O)n2)c(C)c1 value_measured=inactive
molecule=CCCCNC(=S)N/N=C1\CCCCc2ccccc21 value_measured="31.6 µM (active)"
molecule=CCCCc1ccc(NC(=O)c2cc3c(s2)CCCC3)cc1 value_measured=inactive
molecule=O=C(CNCc1cccs1)Nc1cc(S(=O)(=O)N2CCCC2)ccc1Cl value_measured=inactive
molecule=CN(Cc1ccco1)c1cc(-c2ccccc2C(F)(F)F)ncn1 value_measured=inactive

Inquiry: What does the data say about its Potency? Entry: O=C(COc1ccc(F)cc1Cl)Nc1ncn[nH]1
Reply text: inactive

Inquiry: Also Cc1ccc(C2C=C(c3ccc(Cl)cc3)Nc3nc(NC(=O)CCC(=O)O)nn32)cc1 (stereo not drawn) , if possible.
Reply text: inactive

Inquiry: Also Cc1ccc2cc(C)c(Nc3cccc(C)c3C)nc2c1 , if possible.
Reply text: inactive

Inquiry: Also Cc1ccc(C(=O)N2CCC(c3nn(-c4ccccc4)c(=O)[nH]3)CC2)cc1 , if possible.
Reply text: inactive

Inquiry: Also O=C1NS(=O)(=O)c2ccccc21 , if possible.
Reply text: 12.6 µM (active)

Inquiry: Also COc1ccc(-c2noc(CNC(=O)COc3cccc(C)c3C)n2)cc1OC , if possible.
Reply text: inactive
